Parameter: log10 of IC50. Scope: all listed entries.
target: human Tie2 (Homo sapiens, UniProt Q02763); construct: amino acids of the intracellular domain 776-1124; assay: Tie2 assay of PLC phosphorylation (FlashPlate); conditions: read-out: IC 50 TIE2
Sequence (Q02763 776-1124): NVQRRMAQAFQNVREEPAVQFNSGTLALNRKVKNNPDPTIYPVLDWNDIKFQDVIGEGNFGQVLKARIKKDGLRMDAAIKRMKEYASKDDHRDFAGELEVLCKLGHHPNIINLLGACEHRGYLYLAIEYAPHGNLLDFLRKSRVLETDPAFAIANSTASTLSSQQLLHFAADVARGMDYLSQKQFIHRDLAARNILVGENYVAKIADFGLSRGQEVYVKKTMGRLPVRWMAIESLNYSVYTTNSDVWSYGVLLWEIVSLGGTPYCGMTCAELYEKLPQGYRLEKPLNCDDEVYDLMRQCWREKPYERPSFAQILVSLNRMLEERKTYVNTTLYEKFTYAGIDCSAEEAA
Structures can show the parent of a compound that is named as a salt.
parameterMeasured: log10 of IC50 (log10 of the value in nM)

compound=Nc1n[nH]c2c(F)c(-c3ccc(NC(=O)Nc4ccccc4)cc3)ccc12 testsystem="human Tie2 (Homo sapiens, UniProt Q02763)" reportedvalue=2.70
compound=O=C(Nc1n[nH]c2cc(-c3ccc(NS(=O)(=O)c4cccc(Cl)c4Cl)cc3)ccc12)c1ccsc1 testsystem="human Tie2 (Homo sapiens, UniProt Q02763)" reportedvalue=0.60
compound=Cc1cc(-c2ccc3c(NC(=O)c4ccsc4)n[nH]c3c2F)ccc1NC(=O)Nc1cc(C(F)(F)F)ccc1F testsystem="human Tie2 (Homo sapiens, UniProt Q02763)" reportedvalue=1.20
compound="Nc1n[nH]c2cc(-c3ccc(NS(=O)(=O)c4cccc(Cl)c4Cl)cc3)ccc12 [Example 2, hydrochloride]" testsystem="human Tie2 (Homo sapiens, UniProt Q02763)" reportedvalue=1.18
compound=O=C(Nc1ccc(-c2ccc3c(NC(=O)c4ccco4)n[nH]c3c2F)cc1)Nc1cc(C(F)(F)F)ccc1F testsystem="human Tie2 (Homo sapiens, UniProt Q02763)" reportedvalue=0.90
compound=O=C(Nc1ccc(-c2ccc3c(NC(=O)c4ccsc4)n[nH]c3c2F)cc1)Nc1cccc(C(F)(F)F)c1 testsystem="human Tie2 (Homo sapiens, UniProt Q02763)" reportedvalue=1.30

---

biological target: human KDR enzyme (Homo sapiens, UniProt P35968); construct: The cytoplasmic domain of the human KDR enzyme was cloned in the form of a GST fusion; GST; assay: KDR substrate phosphorylation assay (scintillation, 96-well plate)
Sequence (P35968 786-1356 limits assumed): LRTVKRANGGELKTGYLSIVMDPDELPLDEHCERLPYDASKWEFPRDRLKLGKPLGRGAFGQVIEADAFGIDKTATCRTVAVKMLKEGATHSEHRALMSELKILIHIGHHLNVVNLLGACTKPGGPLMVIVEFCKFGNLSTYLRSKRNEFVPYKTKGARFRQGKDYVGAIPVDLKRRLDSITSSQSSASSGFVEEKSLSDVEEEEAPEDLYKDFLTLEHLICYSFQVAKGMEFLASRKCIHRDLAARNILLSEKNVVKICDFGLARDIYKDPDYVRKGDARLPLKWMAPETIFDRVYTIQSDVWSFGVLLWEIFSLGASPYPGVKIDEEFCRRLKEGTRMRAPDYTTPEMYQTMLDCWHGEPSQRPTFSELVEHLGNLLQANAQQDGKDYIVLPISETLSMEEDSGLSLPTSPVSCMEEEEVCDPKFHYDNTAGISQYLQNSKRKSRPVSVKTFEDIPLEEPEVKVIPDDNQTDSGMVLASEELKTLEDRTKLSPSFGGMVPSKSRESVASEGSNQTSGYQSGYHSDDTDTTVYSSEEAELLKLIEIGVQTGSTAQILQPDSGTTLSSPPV
parameterMeasured: IC50 (nM)

chemicalstructure=O=C(Nc1ccc(-c2ccc3c(NC(=O)c4ccsc4)n[nH]c3c2F)cc1)Nc1cccc(C(F)(F)F)c1 testsystem="human KDR enzyme (Homo sapiens, UniProt P35968)" parametermeasured=IC50 reportedvalue=40
chemicalstructure=O=C(Nc1ccc(-c2ccc3c(NC(=O)c4ccsc4)n[nH]c3c2F)cc1)Nc1ccccc1F testsystem="human KDR enzyme (Homo sapiens, UniProt P35968)" parametermeasured=IC50 reportedvalue=4220
chemicalstructure=CC(C)(C)c1cc(NC(=O)Nc2ccc(-c3ccc4c(NC(=O)c5ccsc5)n[nH]c4c3F)cc2)no1 testsystem="human KDR enzyme (Homo sapiens, UniProt P35968)" parametermeasured=IC50 reportedvalue=29
chemicalstructure=CC(C)(C)c1cc(NC(=O)Nc2ccc(-c3ccc4c(N)n[nH]c4c3F)cc2)no1 testsystem="human KDR enzyme (Homo sapiens, UniProt P35968)" parametermeasured=IC50 reportedvalue=85
chemicalstructure=Nc1n[nH]c2c(F)c(-c3ccc(NC(=O)Nc4ccccc4F)cc3)ccc12 testsystem="human KDR enzyme (Homo sapiens, UniProt P35968)" parametermeasured=IC50 reportedvalue=1940
